Assay: Tanguay_ZF_120hpf_YSE_legacy: (Legacy) Oregon State University Tanguay Lab 120 Hour Post-fertilization zebrafish Assay for Yolk Sac Edema (AID 2283634)
Inconclusive results are not listed. Calls of active or inactive are those of the source. Rule for the calls: active = hit-call score of the fitted dose curve at least 0.9, where 1 is the maximum; inconclusive = response in the unintended direction; inactive = score below 0.9.
Write down the outcome that applies. Available outcomes: active, inactive

// below: answered compounds
CC(C)(C)c1cc(/C=C2\SC(N)=NC2=O)cc(C(C)(C)C)c1O :: inactive
CCCCCCCCCCCO :: inactive
CC(O)CC(C)(C)O (configuration not stated) :: inactive
NCc1cccc(C2CCN(C(=O)c3ccc(C#Cc4ccccc4F)o3)CC2)c1 :: inactive
O=c1ccc2ccccc2o1 :: inactive
Cc1ccc(C(C)C)cc1 :: inactive

Please turn your attention to the following entry.
Task item: Record request — test call for OC12N=C(c3ccccc3)SC1Cc1cc(Cl)ccc12 (configuration not stated)
Reply: active
